System: MOLT-4 leukemia
Test Protocol: NCI tumour cell line growth inhibition, 48 h
Measured Attribute: TGI

Worked examples follow.
[
  {
    "Molecule": "O=C(O)c1nc(-c2ccccc2)ncc1-c1nnnn1-c1ccccc1",
    "Measured Attribute": "TGI",
    "Result": "> 100 µM"
  },
  {
    "Molecule": "O=C(c1ccccc1)c1cc(Cl)ccc1OCCCCN1CCN(CCCCOc2ccc(Cl)cc2C(=O)c2ccccc2)CC1",
    "Measured Attribute": "TGI",
    "Result": "7.5 µM"
  },
  {
    "Molecule": "CCOC(=O)C1=C(C)N(C)C23OC4(C(=O)OC)CC2c2ccccc2C1N3C4=O (stereo not given)",
    "Measured Attribute": "TGI",
    "Result": "> 100 µM"
  },
  {
    "Molecule": "CC(C)C1OC23CCCCC2C(C#N)(C#N)C1(C#N)C(=N)O3 (stereo not given)",
    "Measured Attribute": "TGI",
    "Result": "> 100 µM"
  }
]

I'm hoping you can list TGI for every molecule here, please.
1. Cc1ccc(S(=O)(=O)Oc2cc(-c3ccccc3)nc3ccccc23)cc1
2. O=C(OC(=O)n1ccc2ccccc21)n1ccc2ccccc21
3. COc1ccc(N2C(=O)C(c3ccccc3)(c3ccccc3)C23C(=O)N(C)c2ccccc23)cc1 (stereo not given)

Resp:
["> 100 µM", "> 100 µM", "> 100 µM"]

Record TGI for all entries; do not skip any.
1. O=C(/C=C/c1ccc(O)cc1)OC[C@@H](O)COC1OC(CO)C(O)C(O)C1O (stereo not given in full)
2. Cc1ccc(Cl)cc1Nc1nc(C(F)(F)F)ccc1C(=O)N1CCN(c2ccc(F)cc2)CC1
3. NC(CCCCP(=O)(O)O)C(=O)O (stereo not given)

Resp:
> 100 µM
46.6 µM
> 100 µM

----------
Test system: HS 578T breast
Test Protocol: NCI tumour cell line growth inhibition, 48 h; in the data active = GI50 below about 0.43 µM; inactive = the rest
The reply should name one outcome from active, inactive

[
  {
    "Compound": "C[As](C)SC1OC(CO)C(O)C1O (centres undefined)",
    "Measured Target": "HS 578T breast",
    "Answer Label": "inactive"
  },
  {
    "Compound": "C=C(C)[C@@]12OC3(/C=C/C=C/CCCCC)O[C@@H]1[C@@H]1[C@@H]4O[C@]4(CO)[C@@H](O)[C@]4(O)C(=O)C(C)=C[C@H]4[C@@]1(O3)[C@H](C)[C@H]2OC(=O)c1ccccc1",
    "Measured Target": "HS 578T breast",
    "Answer Label": "active"
  },
  {
    "Compound": "O=S(=O)(Nc1cc(F)cc(Cl)c1)c1ccc(-c2cnc(C3CC3)o2)cc1",
    "Measured Target": "HS 578T breast",
    "Answer Label": "inactive"
  },
  {
    "Compound": "CNCCNc1c2c(c(NCCNC)c3c(CN(C)C)c[nH]c13)C(=O)c1ccccc1C2=O",
    "Measured Target": "HS 578T breast",
    "Answer Label": "inactive"
  },
  {
    "Compound": "COc1ccc(C(=O)c2cc(OC)c(C)c(OC)c2)cc1OC(=O)CCl",
    "Measured Target": "HS 578T breast",
    "Answer Label": "active"
  },
  {
    "Compound": "COc1cc(C(=O)c2cc(C)c3[nH]c4ccc(Cl)cc4c3c2C)cc(OC)c1OC",
    "Measured Target": "HS 578T breast",
    "Answer Label": "active"
  },
  {
    "Compound": "C/C(=C\\CCc1ccoc1)CC/C=C(\\C)CCCC1=CC(=O)OC1",
    "Measured Target": "HS 578T breast",
    "Answer Label": "inactive"
  },
  {
    "Compound": "Cc1nc(N)sc1-c1ccnc(Nc2ccc(N3CCOCC3)cc2)n1",
    "Measured Target": "HS 578T breast",
    "Answer Label": "inactive"
  }
]

Req: Please indicate how the test categorized C=C(F)C(=O)N1CCN(c2nc(OC[C@@H]3CCCN3C)nc3c2CCN(c2cccc4cccc(Cl)c24)C3)C[C@@H]1CC#N .
Resp: inactive

----------
System: NCI/ADR-RES ovarian
Test Protocol: NCI tumour cell line growth inhibition, 48 h
Measured Attribute: TGI (µM)
Numbers only, in µM.

The following compounds have reported results that may help.
[
  {
    "Compound": "O=C(c1ccccc1)c1cc(Cl)ccc1OCCCCN1CCN(CCCCOc2ccc(Cl)cc2C(=O)c2ccccc2)CC1",
    "Quantitative Result": 12
  },
  {
    "Compound": "COc1cc(C(=O)c2cc(C)c3[nH]c4ccc(Cl)cc4c3c2C)cc(OC)c1OC",
    "Quantitative Result": 11.9
  },
  {
    "Compound": "CC(C)(C)C(=O)OCOP(=O)(OCOC(=O)C(C)(C)C)C1CCCN(O)C1=O (stereo not given)",
    "Quantitative Result": 3.55
  },
  {
    "Compound": "Cc1ccc2c(n1)C(=O)c1[nH]c3ccccc3c1C2=O",
    "Quantitative Result": 9.29
  }
]

Now look at this entry.
Req: What measured TGI goes with NCCCNc1nc2ccccc2c2c(=O)c3cc(OC(F)(F)F)ccc3sc12 ?
Resp: 3.41

----------
For each record, write down the corresponding TGI.
Test system: NCI/ADR-RES ovarian
Test Protocol: NCI tumour cell line growth inhibition, 48 h
Answers are plain numbers, in µM.

Worked examples, 4 compounds total:
[
  {
    "Compound": "CCN(CC)c1c(N(CC)CC)c(=O)c1=O",
    "TGI / µM": 61.2
  },
  {
    "Compound": "COC(=O)Cc1cc(O)c(C/C=C(\\C)CC/C=C(\\C)C(O)C(=O)C=C(C)C)cc1O (stereo unspecified)",
    "TGI / µM": 58.4
  },
  {
    "Compound": "O=S(=O)(Nc1cc(F)cc(Cl)c1)c1ccc(-c2cnc(C3CC3)o2)cc1",
    "TGI / µM": 15.5
  },
  {
    "Compound": "c1ccc2sc(C3(N4CCCC4)CCCCCC3)cc2c1",
    "TGI / µM": 44.4
  }
]

Now for another entry.
Req: Can you look up the measured TGI of Cc1cc(N(CCC#N)CCC#N)ccc1/C(N=Nc1ccc([N+](=O)[O-])cc1)=N\NC(=O)c1cc(Cl)ccc1C(=O)c1ccccc1 for me?
Resp: 50.9

----------
Tested on: DMS 273 small cell lung
Test Protocol: NCI tumour cell line growth inhibition, 48 h
Measured Attribute: TGI

Answer for every listed entry: what is its TGI? The entries follow.
1. CC(=O)Nc1ccc(C(=O)NN2C(=O)C(Cl)C2c2ccccc2)cc1 (centres undefined)
2. Cc1cc(=O)[nH]c(NN2C(Cl)C(=O)C2c2cccc(O)c2)n1 (centres undefined)
3. O=C(c1ccc(O)cc1)C1c2c3c(cc(O)c2C(c2ccc(O)cc2)C1c1cc(O)cc(O)c1)OC(c1ccc(O)cc1)C3c1cc2c(cc1O)OC(c1ccc(O)cc1)C2c1cc(O)cc(O)c1 (centres undefined)
4. COc1ccccc1C1C(C(=O)O)=C(CO)Oc2cc3c(cc21)OCO3 (centres undefined)

Resp:
["> 100 µM", "> 100 µM", "> 12.5 µM", "> 100 µM"]

----------
Tested on: HCT-15 colon
Test Protocol: NCI tumour cell line growth inhibition, 48 h
Measured Attribute: TGI (µM)
Numbers only, in µM.

[
  {
    "Compound": "C=C(F)C(=O)N1CCN(c2nc(OC[C@@H]3CCCN3C)nc3c2CCN(c2cccc4cccc(Cl)c24)C3)C[C@@H]1CC#N",
    "Units Label": "µM",
    "Quantitative Result": 2.06
  },
  {
    "Compound": "COc1ncnc(C2CC2)c1-c1ncc2cnn(Cc3ccc(-c4nc(C(F)(F)F)cn4C(C)C)cc3)c2n1",
    "Units Label": "µM",
    "Quantitative Result": 90.7
  },
  {
    "Compound": "CCC[CH2][Ge]([CH2]CCC)([CH2]CCC)[O]C(=O)CC(=O)c1ccccc1",
    "Units Label": "µM",
    "Quantitative Result": 10.4
  },
  {
    "Compound": "Clc1coc2nc3ccccc3c(Nc3ccc4c(c3)OCO4)c12",
    "Units Label": "µM",
    "Quantitative Result": 8.05
  },
  {
    "Compound": "CC(=O)Nc1cc(C(=O)Nc2cc(C(=O)N3CC(CCl)c4c3cc(N)c3ccccc43)nn2C)nn1C (centres undefined)",
    "Units Label": "µM",
    "Quantitative Result": 3.22
  }
]

From here, focus on the item given below.
Req: Query (compound): C=C(C=O)C1CCC2(C(=O)O)CCC3(C)C(CCC4C5(C)CCC(O)C(C)(C)C5CCC43C)C12 (centres undefined) ; field requested: TGI
Resp: 4.47
